From: patent US8546416B2

target: human recombinant ghrelin receptor (GHS-R1a) (Homo sapiens); construct: host or cells: CHO-K1; assay: hGHS-R1a cAMP assay (HTRF cAMP dynamic 2 kit, CHO-hGHS-R1a cells); assay type: cell-based; conditions: 60 min incubation, dose response up to 30 μM
Hi there, I'd appreciate the recorded EC50 for every entry that follows.
One number for each entry, in µM.

# molecule, EC50 [µM]
data = [
    ("CC(C)N1CC(c2ccc(F)cc2)C2(CCCN(C(=O)[C@@H](Cc3cn(C)c4ccccc34)NC(=O)C(C)(C)N)C2)C1=O (single isomer, unassigned)", 0.128),
    ("CN1C[C@@H](c2ccc(F)cc2)[C@@]2(CCCN(C(=O)[C@@H](COCc3ccccc3)NC(=O)C(C)(C)N)C2)C1=O", 0.055),
    ("CCN1CC(c2ccccc2)C2(CCCN(C(=O)[C@@H](COCc3ccccc3)NC(=O)C(C)(C)N)C2)C1=O (single isomer, unassigned)", 0.043),
    ("Cc1ccc(COC[C@@H](NC(=O)C(C)(C)N)C(=O)N2CCCC3(C2)C(=O)N(C)CC3c2ccc(F)cc2)cc1 (some centres unmarked) [Example 1.72]", 2.56),
    ("CN1CC(c2ccccc2)C2(CCCN(C(=O)[C@@H](COCc3ccccc3)NC(=O)C(C)(C)N)CC2)C1=O (single isomer, unassigned)", 0.086),
    ("CN1C(=O)C2(CCCN(C(=O)[C@@H](COCc3ccccc3)NC(=O)C(C)(C)N)C2)C1c1ccccc1 (single isomer, unassigned)", 0.456),
    ("CN1CC(c2ccc(Cl)cc2)C2(CCCN(C(=O)[C@@H](COCc3ccccc3)NC(=O)C(C)(C)N)C2)C1=O (single isomer, unassigned)", 0.162),
    ("CC(C)(N)C(=O)N[C@H](COCc1ccccc1)C(=O)N1CCCC2(C1)C(=O)NCC2c1ccccc1 (single isomer, unassigned) [Example 1.49]", 0.154),
    ("Cc1ccc(C2CN(C)C(=O)C23CCCN(C(=O)[C@@H](COCc2ccccc2)NC(=O)C(C)(C)N)C3)cc1 (single isomer, unassigned)", 0.036),
    ("Cc1ccc(COC[C@@H](NC(=O)C(C)(C)N)C(=O)N2CCCC3(C2)C(=O)N(C)CC3c2ccccc2)cc1 (single isomer, unassigned)", 0.072),
]

Quick one: give me EC50 for each item below, same order please.
1. Cc1ccccc1C1CN(C)C(=O)C12CCCN(C(=O)[C@@H](COCc1ccccc1)NC(=O)C(C)(C)N)C2 (single isomer, unassigned)
2. CC(C)(N)C(=O)N[C@H](COCc1ccccc1)C(=O)N1CCCC2(C1)C(=O)NCC2c1ccccc1 (single isomer, unassigned) [Example 1.4]
3. CN1CC(c2ccccc2)C2(CCCN(C(=O)[C@@H](COCC3CCCCC3)NC(=O)C(C)(C)N)C2)C1=O (single isomer, unassigned)
4. CN1CC(c2ccccc2)C2(CCCN(C(=O)[C@@H](COCc3ccccc3)NC(=O)C(C)(C)N)C2)C1=O (single isomer, unassigned) [Example 1.21]
5. Cc1ccc(COC[C@@H](NC(=O)C(C)(C)N)C(=O)N2CCCC3(C2)C(=O)N(C)CC3c2ccc(F)cc2)cc1 (single isomer, unassigned) [Example 1.29]
6. CCC(N)(CC)C(=O)N[C@H](COCc1ccccc1)C(=O)N1CCC[C@@]2(C1)C(=O)N(C)C[C@H]2c1ccccc1
7. CNC(C)(C)C(=O)N[C@H](COCc1ccccc1)C(=O)N1CCCC2(C1)C(=O)N(C)CC2c1ccccc1 (single isomer, unassigned)

1: 0.067; 2: 0.051; 3: 0.047; 4: 1.93; 5: 0.049; 6: 1.14; 7: 0.082

Quick one: give me EC50 for each item below, same order please.
1. CN1CC(c2ccccc2)C2(CCCN(C(=O)[C@@H](COCc3ccc(F)cc3)NC(=O)C(C)(C)N)C2)C1=O (single isomer, unassigned)
2. CN1C[C@H](c2ccccc2)[C@]2(CCCN(C(=O)[C@@H](COCc3ccccc3)NC(=O)C(C)(C)N)C2)C1=O (single isomer, unassigned)
3. CC(C)(C)CN1CC(c2ccccc2)C2(CCCN(C(=O)[C@@H](COCc3ccccc3)NC(=O)C(C)(C)N)C2)C1=O (some centres unmarked) [Example 1.75]
4. CN(C)C(=O)CN1CC(c2ccccc2)C2(CCCN(C(=O)[C@@H](COCc3ccccc3)NC(=O)C(C)(C)N)C2)C1=O (single isomer, unassigned)
5. CN1CN(c2ccccc2)C2(CCCN(C(=O)[C@@H](COCc3ccccc3)NC(=O)C(C)(C)N)C2)C1=O (single isomer, unassigned)

1: 0.138; 2: 1.34; 3: 0.302; 4: 0.039; 5: 0.517

* * *

target: human recombinant ghrelin receptor (GHS-R1a) (Homo sapiens, UniProt Q92847); construct: host or cells: CHO-K1; assay: hGHS-R1a Ca assay (Fluo-4 calcium assay in CHO-K1 cells); format: cell-based; conditions: CHO-K1 cells expressing human GHS-R1a; agonist dose response up to 30 μM
Sequence (Q92847 whole entry): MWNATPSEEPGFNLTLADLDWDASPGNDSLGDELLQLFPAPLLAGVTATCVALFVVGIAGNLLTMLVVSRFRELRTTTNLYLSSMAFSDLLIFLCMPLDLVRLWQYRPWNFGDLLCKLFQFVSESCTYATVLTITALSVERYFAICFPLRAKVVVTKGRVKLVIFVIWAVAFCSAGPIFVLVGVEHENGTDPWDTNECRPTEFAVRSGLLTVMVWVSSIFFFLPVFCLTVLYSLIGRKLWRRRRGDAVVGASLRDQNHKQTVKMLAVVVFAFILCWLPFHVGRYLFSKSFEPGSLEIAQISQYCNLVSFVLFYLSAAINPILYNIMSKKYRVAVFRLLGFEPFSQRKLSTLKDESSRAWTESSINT
reported_property: EC50 (µM)
Answers are plain numbers, in µM.

Quick one: give me EC50 for each item below, same order please.
1. CN1CC(c2ccccc2)C2(CCCN(C(=O)[C@@H](COCc3ccccc3)NC(=O)C(C)(N)C(F)(F)F)C2)C1=O (stereo partly drawn)
2. Cc1ccc(COC[C@@H](NC(=O)C(C)(C)N)C(=O)N2CCCC3(C2)C(=O)N(C)CC3c2ccccc2)cc1 (single isomer, unassigned)

[3.32, 0.00013]

Report value only: EC50, human recombinant ghrelin receptor (GHS-R1a) (Homo sapiens, UniProt Q92847), CN1N=C(c2ccccc2)C2(CCCN(C(=O)[C@@H](COCc3ccccc3)NC(=O)C(C)(C)N)C2)C1=O (mixture of isomers)
0.0017

* * *

Hi there, I'd appreciate the recorded EC50 for every entry that follows.
target: human recombinant ghrelin receptor (GHS-R1a) (Homo sapiens); construct: host or cells: CHO-K1; experiment: hGHS-R1a cAMP assay (HTRF cAMP dynamic 2 kit, CHO-hGHS-R1a cells); format: cell-based; conditions: 60 min incubation, dose response up to 30 μM

# compound, experimental_target, reported_property, value_reported
rows = [
    ("CN1CC(c2ccc(F)cc2)C2(CCCN(C(=O)[C@@H](COCc3ccc(Cl)cc3)NC(=O)C(C)(C)N)C2)C1=O (single isomer, unassigned)", "human recombinant ghrelin receptor (GHS-R1a) (Homo sapiens)", "EC50", "0.043 µM"),
]

Quick one: give me EC50 for each item below, same order please.
1. CN1CC(c2ccccc2)C2(CCCN(C(=O)[C@@H](CCc3ccccc3)NC(=O)C(C)(C)N)C2)C1=O (single isomer, unassigned)
2. CN1CC(c2ccccc2)C2(CCCN(C(=O)[C@@H](COCc3ccccc3)NC(=O)C(C)(C)N)C2)C1=O (single isomer, unassigned) [Example 1.20]
3. COc1ccc(C2CN(C)C(=O)C23CCCN(C(=O)[C@@H](COCc2ccccc2)NC(=O)C(C)(C)N)C3)cc1 (stereo partly shown)

0.141 µM
2.28 µM
5.9 µM

* * *

target: human recombinant ghrelin receptor (GHS-R1a) (Homo sapiens); construct: host or cells: CHO-K1; assay: hGHS-R1a Ca assay (Fluo-4 calcium assay in CHO-K1 cells); format: cell-based; conditions: CHO-K1 cells expressing human GHS-R1a; agonist dose response up to 30 μM
Hi there, I'd appreciate the recorded EC50 for every entry that follows.
One number for each entry, in µM.

Some entries whose results are on file:
# molecule, experimental_target, EC50, µM
measured = [
    ("CN1CC(c2ccccc2)C2(CCCN(C(=O)[C@@H](COCC3CCCCC3)NC(=O)C(C)(C)N)C2)C1=O (single isomer, unassigned)", "human recombinant ghrelin receptor (GHS-R1a) (Homo sapiens)", 0.0003),
    ("CNC(C)(C)C(=O)N[C@H](COCc1ccccc1)C(=O)N1CCCC2(C1)C(=O)N(C)CC2c1ccccc1 (single isomer, unassigned)", "human recombinant ghrelin receptor (GHS-R1a) (Homo sapiens)", 0.001),
    ("CC(C)(C)CN1CC(c2ccccc2)C2(CCCN(C(=O)[C@@H](COCc3ccccc3)NC(=O)C(C)(C)N)C2)C1=O (single isomer, unassigned) [Example 1.40]", "human recombinant ghrelin receptor (GHS-R1a) (Homo sapiens)", 0.0007),
    ("CN1CC(c2ccccc2)C2(CCCN(C(=O)[C@@H](COCc3ccccc3)NC(=O)C(C)(C)N)C2)C1=O (single isomer, unassigned) [Example 1.21]", "human recombinant ghrelin receptor (GHS-R1a) (Homo sapiens)", 0.0021),
    ("CC(C)(N)C(=O)N[C@H](COCc1ccccc1)C(=O)N1CCCC2(C1)C(=O)NCC2c1ccccc1 (single isomer, unassigned) [Example 1.49]", "human recombinant ghrelin receptor (GHS-R1a) (Homo sapiens)", 0.0006),
]

Quick one: give me EC50 for each item below, same order please.
1. CC(C)N1CC(c2ccccc2)C2(CCCN(C(=O)[C@@H](COCc3ccccc3)NC(=O)C(C)(C)N)C2)C1=O (single isomer, unassigned)
2. CN1C[C@@H](c2ccccc2)[C@@]2(CCCN(C(=O)[C@@H](COCc3ccccc3)NC(=O)C(C)(C)N)C2)C1=O (single isomer, unassigned)
3. CN1CC(c2ccccc2)C2(CCCN(C(=O)[C@@H](COCc3ccc(F)cc3)NC(=O)C(C)(C)N)C2)C1=O (single isomer, unassigned)
4. CN1CC(c2ccccc2)C2(CCCN(C(=O)[C@@H](CCc3ccccc3)NC(=O)C(C)(C)N)C2)C1=O (single isomer, unassigned)
5. CCN1CC(c2ccccc2)C2(CCCN(C(=O)[C@@H](COCc3ccccc3)NC(=O)C(C)(C)N)C2)C1=O (single isomer, unassigned)
6. C[C@H](OCc1ccccc1)[C@@H](NC(=O)C(C)(C)N)C(=O)N1CCCC2(C1)C(=O)N(C)CC2c1ccccc1 (single isomer, unassigned)

[0.0001, 0.00016, 0.00017, 0.00065, 0.0003, 0.0005]
